Entry source: paper PMC7683545

# assay-system: TRPC5 (Homo sapiens, UniProt Q9UL62, V455M)
# Construct: TRPC5-SYFP2, wild-type (contains the previously described V455M)
# Sequence (Q9UL62 1-973 V455M): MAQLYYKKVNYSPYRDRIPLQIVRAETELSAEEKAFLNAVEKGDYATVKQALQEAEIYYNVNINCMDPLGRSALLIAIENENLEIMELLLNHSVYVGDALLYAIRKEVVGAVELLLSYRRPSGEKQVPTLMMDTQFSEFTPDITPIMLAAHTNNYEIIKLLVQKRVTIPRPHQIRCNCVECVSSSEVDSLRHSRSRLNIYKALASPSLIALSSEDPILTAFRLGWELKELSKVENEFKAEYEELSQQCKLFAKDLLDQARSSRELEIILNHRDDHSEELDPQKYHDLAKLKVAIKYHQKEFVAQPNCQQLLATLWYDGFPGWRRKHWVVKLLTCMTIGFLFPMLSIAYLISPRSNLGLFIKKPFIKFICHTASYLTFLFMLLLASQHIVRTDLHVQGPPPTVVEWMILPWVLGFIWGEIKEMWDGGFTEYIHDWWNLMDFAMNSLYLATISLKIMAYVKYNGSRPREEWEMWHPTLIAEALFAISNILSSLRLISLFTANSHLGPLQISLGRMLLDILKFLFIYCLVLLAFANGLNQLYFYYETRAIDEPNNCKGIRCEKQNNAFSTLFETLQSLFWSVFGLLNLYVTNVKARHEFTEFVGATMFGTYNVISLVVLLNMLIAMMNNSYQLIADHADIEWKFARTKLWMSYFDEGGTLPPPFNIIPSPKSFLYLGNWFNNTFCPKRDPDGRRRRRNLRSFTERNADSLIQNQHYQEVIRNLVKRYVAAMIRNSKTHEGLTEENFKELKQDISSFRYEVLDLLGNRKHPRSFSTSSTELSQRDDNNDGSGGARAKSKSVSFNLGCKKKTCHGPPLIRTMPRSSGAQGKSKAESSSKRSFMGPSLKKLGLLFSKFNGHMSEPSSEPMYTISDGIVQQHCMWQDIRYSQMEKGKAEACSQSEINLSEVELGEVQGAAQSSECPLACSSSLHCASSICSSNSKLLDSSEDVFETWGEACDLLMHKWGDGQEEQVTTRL
# protocol-details: Fura-2 intracellular calcium assay in transfected HEK […] cells
parameter-measured: pEC50
Entry type: numeric. Quantity: pEC50, the -log10 of concentration in molar units.

IN: Tell me its pEC50 given `Cn1c(=O)n(CCCO)c(=O)c2c1nc(Oc1ccc(Cl)c(OC(F)(F)F)c1)n2Cc1ccc(Cl)cc1` as the entry.
OUT: 7.97
